Biological target: Human STING (Homo sapiens, UniProt Q86WV6, G230A/H232R/R293Q/R71H)
Construct: host or cells: THP1-Dual cells (human monocytic reporter line)
Sequence (Q86WV6 whole entry R71H/G230A/H232R/R293Q): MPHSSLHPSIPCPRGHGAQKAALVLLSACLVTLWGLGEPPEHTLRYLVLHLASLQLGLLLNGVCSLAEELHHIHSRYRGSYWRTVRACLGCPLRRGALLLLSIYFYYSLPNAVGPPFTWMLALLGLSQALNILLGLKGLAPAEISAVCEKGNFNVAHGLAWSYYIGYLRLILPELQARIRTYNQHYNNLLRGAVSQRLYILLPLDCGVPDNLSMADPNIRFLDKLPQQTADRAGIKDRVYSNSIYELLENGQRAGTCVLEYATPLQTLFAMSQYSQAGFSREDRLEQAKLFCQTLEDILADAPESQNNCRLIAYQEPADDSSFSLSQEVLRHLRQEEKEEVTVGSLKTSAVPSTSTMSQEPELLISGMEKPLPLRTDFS
Test: EC50 in THP1-Dual cells, NF-kB reporter (QUANTI-Blue)
Type: cell-based
Conditions: THP1 cell line, 24 h, OD620, read-out: ECs50 NF-kB
endpoint.label: EC50 (µM)
I only need the number, in µM, no unit after it.

Here's what some known entries look like.
molecule	system	readout.unit	EC50
B[P@]1(=O)OC[C@H]2O[C@@H](n3cnc4c(N)ncnc43)[C@H](F)[C@@H]2OP(=O)(O)OC[C@H]2O[C@@H](n3cnc4c(N)ncnc43)[C@H](O1)C2F (some centres unmarked) [Compound I1]	Human STING (Homo sapiens, UniProt Q86WV6, G230A/H232R/R293Q/R71H)	µM	29
BP1(=O)OC[C@H]2O[C@@H](n3cnc4c(=O)[nH]c(N)nc43)[C@H](F)[C@@H]2OP(=O)(O)OCC2O[C@@H](n3cnc4c(N)ncnc43)[C@H](F)[C@@H]2O1 (some centres unmarked) [Compound G2]	Human STING (Homo sapiens, UniProt Q86WV6, G230A/H232R/R293Q/R71H)	µM	8.52
BP1(=O)OCC2O[C@@H](n3cnc4c(N)ncnc43)[C@H](F)[C@@H]2OP(=O)(S)OC[C@H]2O[C@@H](n3cnc4c(=O)[nH]c(N)nc43)[C@H](F)[C@@H]2O1 (single isomer, unassigned) [Compound C2]	Human STING (Homo sapiens, UniProt Q86WV6, G230A/H232R/R293Q/R71H)	µM	4.93
BP1(=O)OCC2O[C@@H](n3cnc4c(N)ncnc43)[C@H](F)[C@@H]2OP(=O)(S)OC[C@H]2O[C@@H](n3cnc4c(=O)[nH]c(N)nc43)[C@H](F)[C@@H]2O1 (single isomer, unassigned) [Compound C4]	Human STING (Homo sapiens, UniProt Q86WV6, G230A/H232R/R293Q/R71H)	µM	6.29

// below: EC50 requested for another molecule
Entry BP1(=O)OC[C@H]2O[C@@H](n3cnc4c(=O)[nH]c(N)nc43)[C@H](F)[C@@H]2OP(=O)(O)OCC2O[C@@H](n3cnc4c(N)ncnc43)[C@H](F)[C@@H]2O1 (some centres unmarked) [Compound G1] needs its EC50 filled in; supply it.
4.3

----------
As shown below, each of these compounds has a reported Readout Average value.
Target: Human STING (Homo sapiens, UniProt Q86WV6, G230A/H232R/R293Q/R71H)
Construct: host or cells: THP1-Dual cells (human monocytic reporter line)
Assay: THP1-Dual cell assay, IRF pathway reporter luminescence readout (QUANTI-Luc)
Assay type: cell-based
Conditions: THP1-Dual cells, 24 h, 30 μM, Table 2
Could you respond with only the numeric value?

Here's what some known entries look like.
compound	Readout Average
BP1(=O)OC[C@H]2O[C@@H](n3cnc4c(NCc5ccccc5)ncnc43)[C@H](OP(=O)(S)OC[C@H]3O[C@@H](n4cnc5c(NCc6ccccc6)ncnc54)[C@H](O)[C@@H]3O1)[C@@H]2O (single isomer, unassigned) [Compound D4]	510240
BP1(=O)OC[C@H]2O[C@@H](n3cnc4c(NCc5ccccc5)ncnc43)[C@H](OP(=O)(S)OC[C@H]3O[C@@H](n4cnc5c(NCc6ccccc6)ncnc54)[C@H](O)[C@@H]3O1)[C@@H]2O (single isomer, unassigned) [Compound D3]	273875
BP1(=O)OC[C@H]2O[C@@H](n3cnc4c(NCc5ccccc5)ncnc43)[C@H](OP(=O)(S)OC[C@H]3O[C@@H](n4cnc5c(NCc6ccccc6)ncnc54)[C@H](O)[C@@H]3O1)[C@@H]2O (single isomer, unassigned) [Compound D2]	23960

Entry BP1(=O)OC[C@H]2O[C@@H](n3cnc4c(NCc5ccccc5)ncnc43)[C@H](OP(=O)(S)OC[C@H]3O[C@@H](n4cnc5c(NCc6ccccc6)ncnc54)[C@H](O)[C@@H]3O1)[C@@H]2O (single isomer, unassigned) [Compound D1] needs its Readout Average filled in; supply it.
22040
